assay: gradient 5% acetonitrile 3 min, to 50% in 2 min, to 85% in 15 min, held 3 min, 100 µL/min; conditions: column: Zorbax Extend-C18 2.1 x 50 mm; eluents: water / acetonitrile, 0.1% formic acid
Mark True for RP-LC retention time under 800 s, False if at or over.

molecule: CCn1c(=O)c(N2CCCC(C(=O)NCCc3c[nH]c4ccc(C)cc34)C2)nc2ccccc21 (centres undefined)
discreteLabel: False
--
molecule: CC(=O)c1cccc(NC(=O)Cn2ccc3ccc(-c4nnc(C)o4)cc32)c1
discreteLabel: True
--
molecule: COC(=O)c1ccc(NC(=O)N2CCCC2c2cc(C(C)C)on2)cc1 (centres undefined)
discreteLabel: False

Ask | # TODO verify RP-LC retention time < 800 s strictly for this molecule: Cc1cc(N2CCN(C(=O)c3ccc(F)cc3Cl)CC2)nc(N2CCOCC2)n1
Reply | True

Ask | # TODO verify RP-LC retention time < 800 s strictly for this molecule: COc1cccc(CNC(=O)NCCC2CCN(S(=O)(=O)c3ccc(F)cc3)CC2)c1
Reply | False

Ask | # TODO verify RP-LC retention time < 800 s strictly for this molecule: COc1cc2ncnc(Nc3ccc(Cl)cc3F)c2cc1OC
Reply | True

Ask | # TODO verify RP-LC retention time < 800 s strictly for this molecule: COc1ccc(N2C(=O)CCC(C(=O)NC3CCCCCC3)C2c2ccc(F)cc2)cc1 (centres undefined)
Reply | False

Ask | # TODO verify RP-LC retention time < 800 s strictly for this molecule: CCCn1c(=O)c(C)nc2cc(-c3noc(-c4cccc(F)c4)n3)ccc21
Reply | False

Ask | # TODO verify RP-LC retention time < 800 s strictly for this molecule: CCOC(=O)c1c(C)oc2nc(C)nc(NCc3ccc(CC)cc3)c12
Reply | False

Ask | # TODO verify RP-LC retention time < 800 s strictly for this molecule: CCNc1nc(C)cc(N2CCN(S(=O)(=O)c3ccc(OC)cc3)CC2)n1
Reply | True

Ask | # TODO verify RP-LC retention time < 800 s strictly for this molecule: CN(C(=O)CN1C(=O)NC2(CCC(C(C)(C)C)CC2)C1=O)c1ccccc1 (centres undefined)
Reply | False

Ask | # TODO verify RP-LC retention time < 800 s strictly for this molecule: Cc1oc(C2CCN(C(=O)Nc3ccc(F)cc3)CC2)nc1C(=O)N1CCOCC1
Reply | True

Ask | # TODO verify RP-LC retention time < 800 s strictly for this molecule: Cc1ccc(C)c(N2CCN(c3ccnc(SCC(=O)Nc4ccc(Cl)cc4F)n3)CC2)c1
Reply | False

Ask | # TODO verify RP-LC retention time < 800 s strictly for this molecule: CCc1nc(-n2cccc2)sc1C(=O)Nc1ccc(OC)c(OC)c1
Reply | False

Ask | # TODO verify RP-LC retention time < 800 s strictly for this molecule: CC(=O)Nc1ccc(NC(=O)Cn2cccc(-c3nc(-c4ccccc4)no3)c2=O)cc1
Reply | True

Ask | # TODO verify RP-LC retention time < 800 s strictly for this molecule: CCOC(=O)c1cccc(Nc2ncccc2S(N)(=O)=O)c1
Reply | False

Ask | # TODO verify RP-LC retention time < 800 s strictly for this molecule: Cc1c(C(=O)N2CCSCC2)cnn1-c1ccc(-c2nc(C(C)(C)C)no2)cn1
Reply | False
